System: DeltatarO mutant
Experiment: S. aureus survival, RN4220 and DeltatarO strains – OD600, teichoic acid synthesis inhibitors, primary screen (AID 463173)
Settings: S. aureus RN4220 wild type/DeltatarO growth, OD600, 18 h, hits give low values, screened at 18.75 µg/mL (by protocol)
The whole screen tested about 52,000 compounds, of which about 4,300 (8.3%) were called active. For the sample, actives were picked, then their nearest neighbours and some compounds at random.
# Lookup of reported survival keyed by entry
outcome-measure: survival (%)

COc1ccc(C(=O)NCC(c2cccnc2)N2CCN(c3ccccc3F)CC2)cc1OC (stereo not given) : 86
Cc1cccc(C)c1NC(=O)CN(C)S(=O)(=O)c1ccc2c(c1)n(C)c(=O)c(=O)n2C : 89
CCc1ccc2occ(CC(=O)Nc3c(C(=O)Nc4ccc(OC)cc4)oc4ccccc34)c2c1 : 84
CCOC(=O)c1cc(S(=O)(=O)NCc2ccc(Cl)cc2)[nH]n1 : 87
Cn1cc(C(=O)N2CCN(c3cccc(C(F)(F)F)c3)CC2)c2c3ccccc3n(C)c2c1=O : 20
Cc1c(Cl)cccc1-c1ccc(/C=C(\C#N)c2nc3ccccc3[nH]2)o1 : 13
CN(C)/C=C(\C#N)c1nc2ccccc2[nH]1 : 73
Cn1c2ccccc2c2c(C(=O)N3CCN(c4cccc(C(F)(F)F)c4)CC3)cn(C3CCCCC3)c(=O)c21 : 88
CN(C)CCCC1(O)c2ccccc2CCc2ccccc21 : 85
N#C/C(=C\c1ccc(-c2ccc(C(=O)O)cc2)o1)c1nc2ccccc2[nH]1 : 77
